Reference for the values: patent US20020058247A1

- test-system: T1, Full length recombinant HBcAg (rHBcAg) encompassing residues 1-183 (hepatitis B virus, UniProt P03146 1-183)
- T1 construct: range 1-183; also called hepatitis B virus core antigen
- T1 sequence (P03146 whole entry, the tested form may be a part): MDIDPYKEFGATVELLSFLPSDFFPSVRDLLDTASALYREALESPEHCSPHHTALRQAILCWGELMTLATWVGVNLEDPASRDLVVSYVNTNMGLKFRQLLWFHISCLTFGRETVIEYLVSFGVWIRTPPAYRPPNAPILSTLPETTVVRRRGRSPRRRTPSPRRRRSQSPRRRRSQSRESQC
- experiment-summary: EIA, support-bound peptide, HBcAg 2 ug/well
// values below are reported OD at 405 nm
Quick note: give the figure in OD, leave out the unit.

// solved cases for OD at 405 nm follow
[[record]]
binder = "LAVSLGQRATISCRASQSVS [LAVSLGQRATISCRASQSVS (SEQ. ID. No. 16)]"
numeric_value = 3.11

[[record]]
binder = "NPYYGSTSYNQKFKGKATLT (also called Peptide # 29) [NPYYGSTSYNQKFKGKATLT (SEQ. ID. No. 32)]"
numeric_value = 0.783

[[record]]
binder = "QKFKGKATLTVDKSSSTAYM (also called Peptide # 30) [QKFKGKATLTVDKSSSTAYM (SEQ. ID. No. 33)]"
numeric_value = 1.11

[[record]]
binder = "TGFAYWGQGTLVTVSAAKTT (also called Peptide # 34) [TGFAYWGQGTLVTVSAAKTT (SEQ. ID. No. 37)]"
numeric_value = 0.898


Prompt: Give OD at 405 nm for YCQHSWEIPYTFGGGTKLEI (also called Peptide # 21) [YCQHSWEIPYTFGGGTKLEI (SEQ. ID. No. 24)]
Completion: 0.498

Prompt: Give a short answer stating reported OD at 405 nm for AVYYCARGKGTGFAYWGQGT (also called Peptide # 33) [AVYYCARGKGTGFAYWGQGT (SEQ. ID. No. 36)] .
Completion: 1.2

Prompt: Tell me its OD at 405 nm given FPGEGSTEYNEKFKGRATLS (also called Peptide # 6) [FPGEGSTEYNEKFKGRATLS (SEQ. ID. No. 9)] as the entry.
Completion: 0.325
